The compounds listed here are annotated with their TGI.
Test system: UACC-62 melanoma
Assay: NCI tumour cell line growth inhibition, 48 h
Readout kind: TGI

# Compound, Target, Assay value
data = [
    ("CCCN(CCCc1ccccc1)CCc1ccc2[nH]c(=S)[nH]c2c1", "UACC-62 melanoma", "74.4 µM"),
    ("CC(=O)OCC1OC(OC2CC3C(C)(C)C(OC(C)=O)CC[C@]3(C)C3CCC45CC4(CCC5[C@@H](C)C[C@H](O)C(O)C(C)(C)O)[C@]23C)C(O)C(O)C1O (some centres undefined)", "UACC-62 melanoma", "> 10 µM"),
    ("CN(C)CC(CC1=C(CC(CN(C)C)N(C)C)CCC1)N(C)C (centres undefined)", "UACC-62 melanoma", "> 100 µM"),
    ("Cc1c(N2C(=O)CS(=O)(=O)C2c2cccc(Oc3ccccc3)c2)c(=O)n(-c2ccccc2)n1C (centres undefined)", "UACC-62 melanoma", "> 100 µM"),
]

###

Tested on: SK-MEL-2 melanoma
Experiment: NCI tumour cell line growth inhibition, 48 h
Readout kind: TGI

# Molecule, Readout kind, Assay value
data = [
    ("CN(C)C(=S)/N=c1\\ssc(=S)n1Cc1ccccc1", "TGI", "9.67 µM"),
    ("c1ccc(CN2CCC3(CC2)SSC2(CCN(Cc4ccccc4)CC2)S3)cc1", "TGI", "> 100 µM"),
    ("CCSc1n/c(=C\\c2ccco2)c2nncn12", "TGI", "> 100 µM"),
    ("CC1OC(OC2C[C@](O)(C(=O)CF)Cc3c(O)c4c(c(O)c32)C(=O)c2ccccc2C4=O)CC(N)C1O (stereo partly drawn)", "TGI", "0.512 µM"),
    ("CC(C)=CCC/C(=C/CC/C(=C\\CCc1ccoc1)C(=O)O)C(=O)O", "TGI", "> 100 µM"),
    ("COc1cc(CO)c(CC(=O)NCCCc2ccccc2)cc1OC", "TGI", "> 100 µM"),
    ("Cc1ccc(SSc2ccc(C)cc2C(=O)O)c(C(=O)O)c1", "TGI", "> 100 µM"),
    ("C[C@H](CCC(=O)O)[C@H]1CC[C@@]2(C)[C@@H]3C(=O)C[C@H]4C(C)(C)[C@@H](O)CC[C@]4(C)[C@H]3C(=O)C[C@]12C", "TGI", "> 100 µM"),
    ("C=CCC1(O)c2ccccc2C(=O)c2c(NCCN(CC(=O)OCC)CC(=O)OCC)cccc21 (stereo not drawn)", "TGI", "> 100 µM"),
    ("O=C1Nc2nc3ccccc3n2N=C2CCCC12 (stereo not drawn)", "TGI", "> 100 µM"),
    ("O=c1ccn(C2CC(O)C(CO)O2)c(=O)[nH]1 (stereo not drawn)", "TGI", "> 5000 µM"),
    ("COc1ccc2c(c1)[nH]c1c(/C=C/c3ccccc3)nccc12", "TGI", "33.2 µM"),
    ("O=C(O)c1cc2ccc3ccccc3c2oc1=O", "TGI", "> 100 µM"),
]

###

System: SK-MEL-5 melanoma
Test: NCI tumour cell line growth inhibition, 48 h; in the data active = GI50 below about 0.43 µM; inactive = the rest
Possible outcomes: active, inactive

# Molecule, Label
rows = [
    ("COc1cc2c(cc1O)CC[C@@H]1[C@@H]2CC[C@]2(C)[C@@H](OCCN(C)C)CC[C@@H]12", "active"),
    ("O=C(Nc1cccc(-n2cc(-c3ccncc3)c(-c3ccc(Cl)c(O)c3)n2)c1)c1ccc(N2CCOCC2)c(C(F)(F)F)c1", "inactive"),
    ("c1csc(-c2cn3nc(-c4c[nH]c5ccccc45)sc3n2)c1", "inactive"),
    ("O=C(Cn1c(=O)c(-c2ccccc2)nc2ccccc21)Nc1ccc(F)cc1", "inactive"),
    ("CN[C@H](C#Cc1c(F)ccc2c1/C(=C/c1[nH]ccc1OC)C(=O)N2)CO", "inactive"),
    ("CN1CCN(CCOc2ccc(-c3cnc4c(-c5ccc(C(F)(F)F)cc5)cnn4c3)cc2)CC1", "inactive"),
    ("COc1ccc(/C=C/C(=O)c2ccc(O)c(CN3CCN(c4cc5c(cc4F)c(=O)c(C(=O)O)cn5C4CC4)CC3)c2)cc1", "inactive"),
    ("CCC1CN2C(=N1)c1ccccc1-c1cc(Cl)ccc12 (stereo unspecified)", "inactive"),
    ("CC(=O)OC[C@]12CC[C@@H](C(=O)CBr)[C@@H]1[C@H]1CC[C@@H]3[C@@]4(C)CCCNC(C)(C)[C@@H]4CC[C@@]3(C)[C@]1(C)CC2", "inactive"),
    ("O=C(Nc1ccncc1)C(=O)c1cn(Cc2ccc(Cl)cc2)c2ccccc12", "active"),
    ("CCCCC[C@H]1C/C=C2/C(=O)C=C[C@@H]2C/C=C\\CCCC(=O)O[C@@H](CCCCC)C/C=C2/C(=O)C=C[C@@H]2C/C=C\\CCCC(=O)O1", "active"),
    ("Cc1cc(Cl)ccc1Nc1nc(C(F)(F)F)ccc1C(=O)N/N=C/c1ccc(Cl)cc1", "inactive"),
    ("COc1ccc(-c2nc(/C=N/Nc3cc(C)nc4ccc(Cl)cc34)c(C)o2)cc1", "inactive"),
    ("COc1cccc(-c2nn(-c3ccccc3)cc2-c2ccnc(NCCCNC(=O)Nc3ccc(Cl)c(Cl)c3)c2)c1", "inactive"),
    ("CCC(C)[C@H]1O[C@]2(C=C[C@@H]1C)C[C@@H]1C[C@@H](C/C=C(\\C)[C@@H](OC3C[C@H](OC)C(O[C@H]4C[C@H](OC)[C@@H](O)[C@H](C)O4)[C@H](C)O3)[C@@H](C)/C=C/C=C3\\CO[C@@H]4[C@H](O)C(C)=C[C@@H](C(=O)O1)[C@]34O)O2 (stereo partly specified)", "inactive"),
    ("COc1cccc(C2=C(c3c(C)n(C)c4ccccc34)C(=O)NC2=O)c1", "inactive"),
]
